Source: patent US20260109761A1

Would you kindly list kon for each of these binders?
Molecular target: T1, huZIP12-ECD-GST (human, UniProt Q504Y0 24-202)
T1 construct: also called hZIP12-ECD-GST; human ZIP12-ECD-GST; not shown: glutathione S-transferase (GST) tag
T1 sequence (Q504Y0 24-202): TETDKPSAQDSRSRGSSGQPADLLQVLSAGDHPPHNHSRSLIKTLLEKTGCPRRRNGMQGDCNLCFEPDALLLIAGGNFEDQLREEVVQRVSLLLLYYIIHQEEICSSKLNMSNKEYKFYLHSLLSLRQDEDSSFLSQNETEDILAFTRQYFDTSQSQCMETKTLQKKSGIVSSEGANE
Test: SPR single cycle kinetics (Biacore): mAb captured on protein A, huZIP12-ECD-GST injected at 2.34-600 nM, extended dissociation
Note: unit M⁻¹ s⁻¹ is implicit; provide only the numeric part.

Output kon of H2_Y60K_VL-par (antibody, V domains shown, Fc null human IgG1 / human kappa) VH: QVQLVESGGGVVQPGRSLRLSCAASGFTFSDYGMHWVRQAPGKGLEWVAYISSGGTTIYKADTVKGRFTISRDNSKNTLYLQMNSLRAEDTAVYYCARWTNLYAMDYWGQGTTVTVSS VL: DIVLTQSPDSLAVSLGERATINCRASKSVSTSGYSYMHWYQQKPGQPPKFLIYLASNLESGVPDRFSGSGSGTDFTLTISSLQAEDVAVYYCQHSREVPYTFGGGTKVEIKR
39400

Output kon of H2_T63Y_L1 (antibody, V domains shown, Fc null human IgG1 / human kappa) VH: QVQLVESGGGVVQPGRSLRLSCAASGFTFSDYGMHWVRQAPGKGLEWVAYISSGGTTIYYADYVKGRFTISRDNSKNTLYLQMNSLRAEDTAVYYCARWTNLYAMDYWGQGTTVTVSS VL: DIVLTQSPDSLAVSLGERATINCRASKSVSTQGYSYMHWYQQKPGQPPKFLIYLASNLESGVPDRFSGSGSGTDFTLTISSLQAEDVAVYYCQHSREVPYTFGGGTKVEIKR
27500
